Target: VEGFR II (KDR) kinase (Homo sapiens, UniProt P35968)
Sequence (P35968 20-1356, species assumed): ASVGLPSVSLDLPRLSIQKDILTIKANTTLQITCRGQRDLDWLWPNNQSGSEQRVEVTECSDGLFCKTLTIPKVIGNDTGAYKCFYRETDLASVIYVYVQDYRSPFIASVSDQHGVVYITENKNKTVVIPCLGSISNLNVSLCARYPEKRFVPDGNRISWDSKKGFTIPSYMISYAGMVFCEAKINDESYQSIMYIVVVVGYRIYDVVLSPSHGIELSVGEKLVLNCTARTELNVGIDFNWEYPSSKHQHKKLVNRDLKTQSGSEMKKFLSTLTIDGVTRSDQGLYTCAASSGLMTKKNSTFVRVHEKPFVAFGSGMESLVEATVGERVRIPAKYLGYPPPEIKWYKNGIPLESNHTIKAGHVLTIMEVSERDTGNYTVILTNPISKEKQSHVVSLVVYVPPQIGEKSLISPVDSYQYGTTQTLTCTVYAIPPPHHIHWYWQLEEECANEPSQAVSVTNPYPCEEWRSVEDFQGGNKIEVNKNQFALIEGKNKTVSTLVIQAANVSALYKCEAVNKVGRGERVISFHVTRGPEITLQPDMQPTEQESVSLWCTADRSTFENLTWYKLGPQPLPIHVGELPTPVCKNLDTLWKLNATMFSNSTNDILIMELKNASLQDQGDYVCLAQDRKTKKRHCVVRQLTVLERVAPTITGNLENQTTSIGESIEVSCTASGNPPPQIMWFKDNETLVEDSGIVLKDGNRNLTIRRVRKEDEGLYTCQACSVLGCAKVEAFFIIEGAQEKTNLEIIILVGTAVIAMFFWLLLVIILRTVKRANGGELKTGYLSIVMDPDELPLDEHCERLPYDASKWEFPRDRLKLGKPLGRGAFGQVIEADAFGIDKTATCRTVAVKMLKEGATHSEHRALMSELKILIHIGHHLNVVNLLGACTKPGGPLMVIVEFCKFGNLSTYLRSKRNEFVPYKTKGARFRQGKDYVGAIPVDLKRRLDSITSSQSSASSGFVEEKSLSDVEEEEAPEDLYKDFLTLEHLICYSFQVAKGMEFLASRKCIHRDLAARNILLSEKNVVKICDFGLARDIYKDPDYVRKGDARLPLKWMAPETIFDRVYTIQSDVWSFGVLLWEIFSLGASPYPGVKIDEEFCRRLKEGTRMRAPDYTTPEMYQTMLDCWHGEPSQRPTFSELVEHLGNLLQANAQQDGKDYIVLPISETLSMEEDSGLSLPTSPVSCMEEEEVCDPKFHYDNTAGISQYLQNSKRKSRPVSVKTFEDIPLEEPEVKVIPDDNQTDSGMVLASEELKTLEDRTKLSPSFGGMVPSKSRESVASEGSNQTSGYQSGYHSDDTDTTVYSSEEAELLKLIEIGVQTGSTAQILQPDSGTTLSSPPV
pIC50: −log10 of the molar value.
quantity kind: pIC50

{"columns": ["smiles notation", "reported measurement"],
 "data": [
  ["O=C(Nc1cc2ccccc2cn1)c1cncnc1NCc1ccncc1", 7.00]
]}
